test: reversal of MRP1-mediated doxorubicin resistance, pilot screen, H69AR cells, doxorubicin co-treatment (AID 601); conditions: H69AR cells + 2 uM doxorubicin, CellTiter-Glo, 72 h; measured here: viability with 2 uM doxorubicin; at 10 µM; stronger effect = lower value
viability class ranges: low value (below 80%), medium value (80% to below 90%), high value (90% or more)

{"MOLECULE": "O=C1CC(c2ccsc2)c2cc3c(cc2N1)OCCO3 (stereo unspecified)", "CAT": "low value"}

**Query** Which viability band matches `CCC(=O)N1CCc2cc(S(=O)(=O)CCC(=O)Nc3nc(C)cs3)ccc21` ?
**Result** low value

**Query** Which viability band matches O=C(NCC(=O)N(Cc1cccs1)C(C(=O)NC1CCCC1)c1ccncc1)c1ccco1 (stereo unspecified) ?
**Result** medium value

**Query** Which viability band matches CC1=C(C(N)=O)C(c2ccc(Cl)cc2Cl)n2ncnc2N1 (stereo unspecified) ?
**Result** medium value

**Query** Which viability band matches CC1(C)CC(=O)C2=C(C1)NC(=O)CC2C(=O)NCc1ccc(F)cc1 (stereo unspecified) ?
**Result** high value

**Query** Which viability band matches `CC(C)(C)n1ncc2c(=O)n(CC(=O)NCc3ccc(F)cc3)cnc21` ?
**Result** low value

* * *

assay: inhibitors of the yeast RAM network, pilot screen, dse1pr::URA3 reporter, 5-FOA selection (AID 869);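 note: 0% = DMSO wells with no growth and 100% = 10 µM 1-NA-PP1 with full growth; RAM network block rescues cells from 5-FOA so hits raise OD615 growth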; settings: S. cerevisiae dse1pr::URA3 5-FOA growth, OD615, 2 d; at 10 µM; stronger effect = higher value; strain carries analog-sensitive mutant Cbk1 kinase
READOUT KIND: inhibition (%)
// units = %; emit number, no label

Study these solved cases before continuing.
{"MOLECULE": "O=C(C1CCN(c2nnc(-n3cccc3)s2)CC1)N1CCN(Cc2ccc3c(c2)OCO3)CC1", "inhibition [%]": 2.78}
{"MOLECULE": "COc1ccc(-c2nc(CS(=O)CC(=O)N3CCCC3)c(C)o2)cc1 (stereo not drawn)", "inhibition [%]": 2.27}
{"MOLECULE": "COc1ccc(N2C(=O)CC(N3CCCC4CCCCC43)C2=O)cc1 (stereo not drawn)", "inhibition [%]": 0.71}
{"MOLECULE": "CCN(c1ccc2c(c1)OCO2)S(=O)(=O)c1cc(Br)cc2c1N(C(=O)C1CC1)CC2", "inhibition [%]": 3.91}

**Query** Dear colleague, I am looking for the recorded inhibition of the following molecule: CC12COC3(C(=O)Nc4ccc(Cl)cn4)CC1CCC32C (stereo not drawn)
**Result** 0.735

**Query** Dear colleague, I am looking for the recorded inhibition of the following molecule: `Cc1onc(-c2ccccc2Cl)c1C(=O)NCCn1c(C)cc2ccccc21`
**Result** 1.56

**Query** Dear colleague, I am looking for the recorded inhibition of the following molecule: Clc1ccc(C2Nc3ccccc3-n3cccc32)cc1 (stereo not drawn)
**Result** 3.41

**Query** Dear colleague, I am looking for the recorded inhibition of the following molecule: `CSc1nc2ccc(Nc3nc(N4CCOCC4)nc(N4CCOCC4)n3)cc2s1`
**Result** 1.97

* * *

test: reversal of MRP1-mediated doxorubicin resistance, pilot screen, H69AR cells, doxorubicin co-treatment (AID 601); details: H69AR cells, CellTiter-Glo, 72 h; compound alone cytotoxicity; at 10 µM
Criterion: viability strictly under 90%. Met: TRUE. Not met: FALSE.

Solved entries:
{"MOLECULE": "O=C(CN(Cc1ccc(F)cc1)C(=O)c1ccco1)NCc1ccc(F)cc1", "CAT": "FALSE"}
{"MOLECULE": "CCOC(=O)C1CCN(CC(=O)Nc2c(C(=O)OC)[nH]c3ccc(Cl)cc23)CC1", "CAT": "TRUE"}
{"MOLECULE": "O=C(CN1C(=O)CC(c2ccco2)Sc2ccccc21)Nc1ccc2c(c1)OCCO2 (stereo not given)", "CAT": "TRUE"}
{"MOLECULE": "O=C(NC1CC1)c1cccc(Nc2ccc(-c3ccc4c(c3)OCCO4)nn2)c1", "CAT": "TRUE"}
{"MOLECULE": "O=C(CCN1CCOCC1)Nc1ccc2c(c1)CCC2", "CAT": "FALSE"}
{"MOLECULE": "CCn1c(CCNC(=O)c2cccs2)nnc1SCC(=O)c1ccc(OC)cc1", "CAT": "FALSE"}
{"MOLECULE": "COc1cc2c(N3CCOCC3)cc(O)c(CC(=O)Nc3ccccc3)c2cc1OC", "CAT": "TRUE"}
{"MOLECULE": "N#Cc1nc(-c2ccccc2Cl)oc1N1CCOCC1", "CAT": "TRUE"}
{"MOLECULE": "CC(=O)C(Sc1ncnc2c1nnn2-c1ccc(F)cc1)C(=O)N(C)C (stereo not given)", "CAT": "TRUE"}
{"MOLECULE": "Cc1ccccc1NS(=O)(=O)c1cc(C(=O)N2CCCC2)ccc1C", "CAT": "TRUE"}

**Query** Check if viability falls below 90% for `CCn1c(SCC(=O)C(C)(C)C)nnc1-c1cnccn1` .
**Result** FALSE

// data source = PubChem BioAssay
